Test system: ventricular muscle refractory period
Measurement description: Influence on ventricular muscle refractory period (ERP)
Format: in vivo, mongrel dog
Stated conditions: Canis lupus familiaris, iv; 0.1 mg/kg, i.v.; (W-Y)/Y×100; read-out: ERP (%; extensibility of refractory period)
Structures can show the parent of a compound that is named as a salt.
Quantity: change in vivo at 0.1 mg/kg (%)
State just the number; it will be interpreted in %.

q: Recorded change in vivo at 0.1 mg/kg for CCN(CCNc1ccc([N+](=O)[O-])cc1)CCNc1cc(=O)n(C)c(=O)n1C [Compound 71, oxalate] , please?
a: 6.7

q: Recorded change in vivo at 0.1 mg/kg for Cn1c(NCCNCCc2ccc([N+](=O)[O-])cc2)cc(=O)n(C)c1=O [Compound 16, oxalate] , please?
a: 6.7

q: Recorded change in vivo at 0.1 mg/kg for Cn1c(N2CCN(CCCOc3ccc([N+](=O)[O-])cc3Cl)CC2)cc(=O)n(C)c1=O [Compound 141, hydrochloride] , please?
a: 0

---

System: Purkinje fiber of the right ventricular free wall (myocardial action potential)
Measurement description: Influence on myocardial action potential duration time (APD75), isolated right ventricular free wall, microelectrode in Purkinje fiber
Format: cell-based, dog
Stated conditions: Canis lupus familiaris, 20 min, 10.0 μg/ml, 20 minutes' incubation, (B-A)/A×100, read-out: APD75 (%)
Counter-ions that a name gives are not always drawn.
Can you tell me activation at 10 µg/mL for the items I'm about to list?
State just the number; it will be interpreted in %.

q: State its activation at 10 µg/mL on Purkinje fiber of the right ventricular free wall (myocardial action potential): `Cn1c(N2CCN(CC(=O)Nc3ccc([N+](=O)[O-])cc3)CC2)cc(=O)n(C)c1=O`
a: 16

q: State its activation at 10 µg/mL on Purkinje fiber of the right ventricular free wall (myocardial action potential): COCCN(CCCc1ccc([N+](=O)[O-])cc1)CCNc1cc(=O)n(C)c(=O)n1C [Compound 171, oxalate]
a: 38

q: State its activation at 10 µg/mL on Purkinje fiber of the right ventricular free wall (myocardial action potential): Cn1c(N2CCN(CCCOc3ccccc3[N+](=O)[O-])CC2)cc(=O)n(C)c1=O [Compound 55, hydrochloride]
a: 39

q: State its activation at 10 µg/mL on Purkinje fiber of the right ventricular free wall (myocardial action potential): CC(C)NC[C@@H](O)c1ccc(NS(C)(=O)=O)cc1 [d-sotalol, reference compound]
a: 15.8

q: State its activation at 10 µg/mL on Purkinje fiber of the right ventricular free wall (myocardial action potential): `Cn1c(N2CCN(CCOc3ccc([N+](=O)[O-])cc3C(=O)c3ccccc3)CC2)cc(=O)n(C)c1=O`
a: 29

q: State its activation at 10 µg/mL on Purkinje fiber of the right ventricular free wall (myocardial action potential): Cn1c(N2CCN(CCCCOc3ccc([N+](=O)[O-])cc3)CC2)cc(=O)n(C)c1=O [Compound 54, hydrochloride]
a: 26

q: State its activation at 10 µg/mL on Purkinje fiber of the right ventricular free wall (myocardial action potential): CCN(CCCNc1ccc([N+](=O)[O-])cc1)CCNc1cc(=O)n(C)c(=O)n1C [Compound 73, hydrochloride]
a: 18

q: State its activation at 10 µg/mL on Purkinje fiber of the right ventricular free wall (myocardial action potential): COC(=O)c1ccc(OCCCN2CCN(c3cc(=O)n(C)c(=O)n3C)CC2)c([N+](=O)[O-])c1 [Compound 154, oxalate]
a: 20

q: State its activation at 10 µg/mL on Purkinje fiber of the right ventricular free wall (myocardial action potential): `CCN(CCNc1cc(=O)n(C)c(=O)n1C)CCc1ccc([N+](=O)[O-])cc1`
a: 37

q: State its activation at 10 µg/mL on Purkinje fiber of the right ventricular free wall (myocardial action potential): Cn1c(N2CCN(CCOc3ccc([N+](=O)[O-])cc3)CC2)cc(=O)n(C)c1=O [Compound 53, hydrochloride]
a: 43

q: State its activation at 10 µg/mL on Purkinje fiber of the right ventricular free wall (myocardial action potential): CC(=O)c1cc([N+](=O)[O-])ccc1NCCCN1CCN(c2cc(=O)n(C)c(=O)n2C)CC1 [Compound 120, oxalate]
a: 29

q: State its activation at 10 µg/mL on Purkinje fiber of the right ventricular free wall (myocardial action potential): CN(CCCN1CCN(c2cc(=O)n(C)c(=O)n2C)CC1)c1ccc([N+](=O)[O-])cc1 [Compound 69, oxalate]
a: 13

q: State its activation at 10 µg/mL on Purkinje fiber of the right ventricular free wall (myocardial action potential): Cn1c(NCCNCc2ccc([N+](=O)[O-])cc2)cc(=O)n(C)c1=O [Compound 15, oxalate]
a: 16

q: State its activation at 10 µg/mL on Purkinje fiber of the right ventricular free wall (myocardial action potential): Cn1c(NCCN(CCCc2ccc([N+](=O)[O-])cc2)CCOC(=O)c2ccccc2)cc(=O)n(C)c1=O [Compound 168, oxalate]
a: 68

q: State its activation at 10 µg/mL on Purkinje fiber of the right ventricular free wall (myocardial action potential): `Cn1c(N2CCN(CCCOc3ccc([N+](=O)[O-])cc3C(=O)c3ccccc3O)CC2)cc(=O)n(C)c1=O`
a: 25

q: State its activation at 10 µg/mL on Purkinje fiber of the right ventricular free wall (myocardial action potential): `Cn1c(N2CCN(CCCOc3ccc([N+](=O)[O-])cc3C(=O)c3ccccc3Cl)CC2)cc(=O)n(C)c1=O`
a: 28

q: State its activation at 10 µg/mL on Purkinje fiber of the right ventricular free wall (myocardial action potential): CCN(CCNc1ccc([N+](=O)[O-])cc1)CCNc1cc(=O)n(C)c(=O)n1C [Compound 71, oxalate]
a: 17

q: State its activation at 10 µg/mL on Purkinje fiber of the right ventricular free wall (myocardial action potential): `CCN(CCNCCCCc1ccc([N+](=O)[O-])cc1)c1cc(=O)n(C)c(=O)n1C`
a: 35

q: State its activation at 10 µg/mL on Purkinje fiber of the right ventricular free wall (myocardial action potential): Cn1c(N2CCN(CCCOc3ccc([N+](=O)[O-])cc3)CC2)cc(=O)n(C)c1=O [Compound 35, hydrochloride]
a: 30

q: State its activation at 10 µg/mL on Purkinje fiber of the right ventricular free wall (myocardial action potential): CC(=O)OCCN(CCCc1ccc([N+](=O)[O-])cc1)CCNc1cc(=O)n(C)c(=O)n1C [Compound 167, oxalate]
a: 26

q: State its activation at 10 µg/mL on Purkinje fiber of the right ventricular free wall (myocardial action potential): Cn1c(N2CCN(CCCOc3ccc([N+](=O)[O-])cc3O)CC2)cc(=O)n(C)c1=O [Compound 162, hydrochloride]
a: 60

q: State its activation at 10 µg/mL on Purkinje fiber of the right ventricular free wall (myocardial action potential): COc1cc([N+](=O)[O-])ccc1OCCCN1CCN(c2cc(=O)n(C)c(=O)n2C)CC1 [Compound 164, hydrochloride]
a: 12

q: State its activation at 10 µg/mL on Purkinje fiber of the right ventricular free wall (myocardial action potential): `Cn1c(N2CCN(CCCNc3ccc([N+](=O)[O-])cc3)CC2)cc(=O)n(C)c1=O`
a: 28
